- Tested on: SK-OV-3
- assay.text: NCI tumour cell line growth inhibition, 48 h
Active and inactive are the calls of the source. Cut-off read from the data, not from the text of the source: active = GI50 up to about 1.1 µM and inactive = higher.
Outcome field: choose from active, inactive

Worked set:
[[record]]
molecule = "Fc1ccc(/C=C2\\COCC3=C2NC(=S)NC3c2ccc(F)cc2)cc1 (stereo not given)"
class_label = "inactive"

[[record]]
molecule = "NC(=S)N/N=C1/CN(c2ccc(Cl)c(Cl)c2)CC(=O)C1c1nc2ccccc2s1 (stereo not given)"
class_label = "inactive"

[[record]]
molecule = "COC1CN(C)/C(=N\\c2cccc3ccccc23)S1 (stereo not given)"
class_label = "inactive"

[[record]]
molecule = "O=C1C=CC(=O)C1(Br)Br"
class_label = "inactive"

[[record]]
molecule = "CCOC(=O)C(C(C)=O)C1CC=CC1 (stereo not given)"
class_label = "inactive"

[[record]]
molecule = "O=C1CN(c2cccc(Cl)c2)C(=O)CN1CCN1CC(=O)N(c2cccc(Cl)c2)CC1=O"
class_label = "inactive"

[[record]]
molecule = "CCc1ccc(Cc2ccc(CC)c(NC(=O)C(=O)C3NC(=S)NC3=O)c2CC)c(CC)c1NC(=O)C(=O)C1NC(=S)NC1=O (stereo not given)"
class_label = "inactive"

[[record]]
molecule = "CN(C)CC1CCC/C(=C\\c2ccc(OC(=O)/C=C/c3ccc(Cl)c(Cl)c3)cc2)C1=O (stereo not given)"
class_label = "inactive"


Query string: Please indicate how the test categorized COC(=O)CCC12CCC(=O)C1[C@@H](C(=O)OC)C[C@H]2C(=O)OC (stereo not given in full) .
Result string: inactive

Query string: Please indicate how the test categorized `C[C@H]1C2Cc3cc(O)ccc3[C@@]1(C)CCN2CCc1ccc(N)cc1` .
Result string: inactive

Query string: Please indicate how the test categorized `O=c1/c(=C/c2ccc([N+](=O)[O-])o2)sc2n1[C@@H](c1ccc(Cl)cc1)C=C(c1cc(F)c(Cl)cc1Cl)N=2` .
Result string: inactive

Query string: Please indicate how the test categorized `COc1ccc2c(c1)-c1nn(CCN(C)C)c3ccc(C(=O)NCCCN(C)CCCNC(=O)c4ccc5c6c(c7cc(OC)ccc7nc46)NN5CCN(C)C)c(c13)N2` .
Result string: active

Query string: Please indicate how the test categorized `COc1ccc2c(c1)CN([C@@H](C)[C@H]1CC[C@H]3[C@@H]4CC[C@H]5C[C@@H](O)CC[C@]5(C)[C@H]4CC[C@]13C)CO2` .
Result string: inactive

Query string: Please indicate how the test categorized `Cn1c(=O)c2c(n(C)c1=O)n1c(=O)c3ccccc3nc1n2C` .
Result string: inactive

Query string: Please indicate how the test categorized `CCCS(=O)(=O)Nc1ccc(Nc2c3ccccc3nc3ccccc23)c(OC)c1` .
Result string: inactive

---

- Test system: HOP-92
- assay.text: NCI tumour cell line growth inhibition, 48 h
Calls of active or inactive are those of the source. Cut-off read from the data, not from the text of the source: active = GI50 up to about 1.1 µM and inactive = higher.
Outcome field: choose from 1 = active, -1 = inactive

[[record]]
molecule = "Nc1nc(N)c2ncn(Cc3ccccc3)c2n1"
class_label = -1


Query string: Please indicate how the test categorized NCCC(=O)N[C@@H](Cc1cc(O)c(O)c(SCC(NC(=O)CC[C@H](N)C(=O)O)C(=O)NCC(=O)O)c1)C(=O)O (some centres not stated) .
Result string: -1

Query string: Please indicate how the test categorized NC(=S)N/N=C1/CN(c2ccc(Cl)c(Cl)c2)CC(=O)C1c1nc2ccccc2s1 (configuration not stated) .
Result string: -1

Query string: Please indicate how the test categorized N#Cc1nc(CCC(C(=O)O)N2C(=O)c3ccccc3C2=O)oc1N (configuration not stated) .
Result string: -1

Query string: Please indicate how the test categorized `O=c1oc2c(Cl)cc(Cl)cc2cc1-c1cn2c(n1)sc1ccccc12` .
Result string: -1

Query string: Please indicate how the test categorized `S=C(N/N=C\c1ccccn1)N(Cc1ccccn1)Cc1ccccn1` .
Result string: -1

---

- Tested on: 786-0
- assay.text: NCI tumour cell line growth inhibition, 48 h
The source made the active and inactive calls. Cut-off read from the data, not from the text of the source: active = GI50 up to about 1.1 µM and inactive = higher. Non-standard residues stand in square brackets, D forms with d. Residues, ends and D or L forms follow the SMILES beside them. *: point of attachment. Bn2Val = CC(C)[C@@H](C(=O)*)N(Cc1ccccc1)Cc1ccccc1; NMeV = CN[C@H](C(=O)O)C(C)C; X32 = COc1ccc(CN*)c(OC)c1; dNMeA = CN[C@H](C)C(=O)O
measured.attribute: GI50

Previously resolved entries follow.
[[record]]
molecule = "Cc1n[nH]c(=O)n1C1CC1"
measured_attribute = "GI50"
assay_value = "> 100 µM (inactive)"

[[record]]
molecule = "CC(=O)CC(=O)Nc1ccccc1C(F)(F)F"
measured_attribute = "GI50"
assay_value = "> 100 µM (inactive)"

[[record]]
molecule = "COc1ccc(CNC(=O)[C@@H]2CCCN2C(=O)[C@@H](C)N(C)C(=O)[C@H](C(C)C)N(C)C(=O)[C@@H](NC(=O)[C@H](C(C)C)N(Cc2ccccc2)Cc2ccccc2)C(C)C)c(OC)c1 (Bn2Val-V[NMeV][dNMeA]P-X32)"
measured_attribute = "GI50"
assay_value = "3.28 µM (inactive)"


Provide GI50 for all items below, preserving their order.
1. N#C/C(C(=O)Nc1ccc(Cl)cc1)=C(/N)N1CCCCC1
2. O=C(CCCc1cccc2[nH]c3c(c12)CN(Cc1ccccc1)CC3)c1ccc(F)cc1

Result string:
> 100 µM (inactive)
> 52.5 µM (inactive)

Provide GI50 for all items below, preserving their order.
1. Cc1cc(=O)oc2cc(OCc3nc4ccccc4c(=O)[nH]3)ccc12
2. Cc1ccnc2c1ccc1nc3ccccc3n12

Result string:
> 100 µM (inactive)
52.6 µM (inactive)

Provide GI50 for all items below, preserving their order.
1. CN(C)c1ccc(/N=N\c2cccc3ccoc23)cc1
2. COc1cccc(NC(=O)C(C#N)=C(SC)SC)c1

Result string:
1. > 100 µM (inactive)
2. > 100 µM (inactive)

Provide GI50 for all items below, preserving their order.
1. O=c1[nH]c(=O)c2c3n(cc2[nH]1)CCCCC3
2. COc1ccc(N[S+]([O-])c2ccc(Cl)cc2)cc1 (configuration not stated)
3. CCOC(=O)/C=C(\C(=O)OCC)n1cc(C)c(=O)n(Cc2cnnn2COCCOC(C)=O)c1=O
4. Cc1c(N)nc([C@H](CC(N)=O)NC[C@H](N)C(N)=O)nc1C(=O)N[C@H](C(=O)N[C@H](C)[C@@H](O)CC(=O)N[C@H](C(=O)NC(O[C@@H]1O[C@@H](C)[C@@H](N)[C@@H](O)[C@H]1O)C(O)c1nc(-c2nc(C(=O)NCCC[S+](C)C)cs2)cs1)[C@@H](C)O)[C@H](O[C@@H]1O[C@@H](CO)[C@@H](O)[C@H](O)[C@@H]1O[C@H]1O[C@H](CO)[C@@H](O)[C@H](OC(N)=O)[C@@H]1O)c1c[nH]cn1 (some centres not stated)

Result string:
1. > 100 µM (inactive)
2. 49.8 µM (inactive)
3. 3.93 µM (inactive)
4. 13.9 µM (inactive)

---

- Tested on: T47D
- assay.text: NCI tumour cell line growth inhibition, 48 h
Active and inactive are the calls of the source. No stated cut-off is given here; in the data, active = GI50 up to about 1.1 µM and inactive = higher.
measured.attribute: GI50

[[record]]
compound = "S=C1N=C(Cl)/C(=C\\c2ccco2)N1"
assay_value = "> 100 µM (inactive)"

[[record]]
compound = "O=C(Oc1ccccc1)N1c2ccccc2[C@@]23O[C@]24CCC[C@H]3C#C/C=C\\C#C[C@H]14"
assay_value = "6.5 µM (inactive)"

[[record]]
compound = "Cc1c(N)nc([C@H](CC(N)=O)NC[C@H](N)C(N)=O)nc1C(=O)N[C@H](C(=O)N[C@H](C)[C@@H](O)CC(=O)N[C@H](C(=O)NC(O[C@@H]1O[C@@H](C)[C@@H](N)[C@@H](O)[C@H]1O)C(O)c1nc(-c2nc(C(=O)NCCC[S+](C)C)cs2)cs1)[C@@H](C)O)[C@H](O[C@@H]1O[C@@H](CO)[C@@H](O)[C@H](O)[C@@H]1O[C@H]1O[C@H](CO)[C@@H](O)[C@H](OC(N)=O)[C@@H]1O)c1c[nH]cn1 (some centres undefined)"
assay_value = "> 100 µM (inactive)"

[[record]]
compound = "COc1ccc(/C=C(\\Cl)c2ccc(OC)c(OC)c2)cc1OC"
assay_value = "> 100 µM (inactive)"

[[record]]
compound = "O=C(O)C1C2CCC(O2)C1C(=O)NCc1cccnc1 (centres undefined)"
assay_value = "> 100 µM (inactive)"


Provide GI50 for all items below, preserving their order.
1. CC12CC(C#N)(C#N)C(C#N)(CO1)C(=N)O2 (centres undefined)
2. C/C(=N\NC(N)=S)c1nc2cccnc2[nH]1
3. NC12CCC(CC1=O)C2 (centres undefined)
4. CCCCCCCCCCCCCCCC1(OC)C[N+](C)(C)CCO1 (centres undefined)
5. COC1=CC(=O)C2=C(C[C@@]3(C)C(=C2)C(CO)=CC[C@H]3O)C1=O
6. CCCCCCCCCCCC1=C(O)C(=O)C(CC2=C(O)C(=O)C(CCCCCCCCCCC)=C(O)C2=O)=C(O)C1=O

Result string:
["> 100 µM (inactive)", "45.1 µM (inactive)", "> 100 µM (inactive)", "5.73 µM (inactive)", "24.6 µM (inactive)", "> 100 µM (inactive)"]

Origin of the recorded values: ChEMBL document CHEMBL1201862
